Where these numbers come from: ChEMBL document CHEMBL1151667

test system: Pseudomonas aeruginosa; assay: Antimicrobial activity against Pseudomonas aeruginosa Z61 after 24 hrs by twofold serial microbroth dilution assay; type: functional

- compound: "CC1=C(O)C(=O)c2ccc(C)cc2C1=O"
  MIC: "> 800 µg/mL"
- compound: "C[C@@H]1[C@H](O)[C@@H](C)/C=C/C=C/C=C/C=C/C=C/C=C/C=C/[C@H](O[C@@H]2O[C@H](C)[C@@H](O)[C@H](N)[C@@H]2O)C[C@@H]2O[C@](O)(C[C@@H](O)C[C@@H](O)[C@H](O)CC[C@@H](O)C[C@@H](O)CC(=O)O[C@H]1C)C[C@H](O)[C@H]2C(=O)O [AMPHOTERICIN B]"
  MIC: "> 5 µg/mL"
- compound: "COc1cccc(OC)c1C(=O)N[C@@H]1C(=O)N2[C@@H]1SC(C)(C)[C@@H]2C(=O)O [METHICILLIN]"
  MIC: "< 4 µg/mL"
- compound: "CC1=CC(=O)c2ccc(C)c(Cl)c2C1=O"
  MIC: "400 µg/mL"
- compound: "CC1=CC(=O)c2ccc(C)cc2C1=O [CHIMAPHILIN]"
  MIC: "> 800 µg/mL"

###

test system: Staphylococcus aureus; test: Antimicrobial activity against Staphylococcus aureus SAP00017 after 24 hrs by twofold serial microbroth dilution assay; assay type: functional
compounds and their reported MIC

- compound: "CC1=C(O)C(=O)c2ccc(C)cc2C1=O"
  subject.of.test: "Staphylococcus aureus"
  result.modifier: "="
  MIC / µg/mL: 800
- compound: "CC1=CC(=O)c2ccc(C)c(Cl)c2C1=O"
  subject.of.test: "Staphylococcus aureus"
  result.modifier: "="
  MIC / µg/mL: 25
- compound: "CC1=CC(=O)c2ccc(C)cc2C1=O [CHIMAPHILIN]"
  subject.of.test: "Staphylococcus aureus"
  result.modifier: "="
  MIC / µg/mL: 25
- compound: "COc1cccc(OC)c1C(=O)N[C@@H]1C(=O)N2[C@@H]1SC(C)(C)[C@@H]2C(=O)O [METHICILLIN]"
  subject.of.test: "Staphylococcus aureus"
  result.modifier: "="
  MIC / µg/mL: 256
- compound: "C[C@@H]1[C@H](O)[C@@H](C)/C=C/C=C/C=C/C=C/C=C/C=C/C=C/[C@H](O[C@@H]2O[C@H](C)[C@@H](O)[C@H](N)[C@@H]2O)C[C@@H]2O[C@](O)(C[C@@H](O)C[C@@H](O)[C@H](O)CC[C@@H](O)C[C@@H](O)CC(=O)O[C@H]1C)C[C@H](O)[C@H]2C(=O)O [AMPHOTERICIN B]"
  subject.of.test: "Staphylococcus aureus"
  result.modifier: ">"
  MIC / µg/mL: 5
